- MEASUREMENT_DESCRIPTION: Zeta-potential measurement
- Type: physicochemical
- CONDITIONS_USED: mean, Std Zeta in next column
Entries whose Zeta Pot. / mV is below 10 mV take Yes; entries at or above 10 mV take No.

Below, 6 substances whose answers are already recorded.
[[record]]
substance = "KIKIKIQINMWQ [VH9]"
class = "No"

[[record]]
substance = "RGDKIKIQI [MG14]"
class = "Yes"

[[record]]
substance = "HHHHKIKIKIKIYYYY [TM6]"
class = "No"

[[record]]
substance = "KLKLQLL [TG4 / (KM2)]"
class = "Yes"

[[record]]
substance = "KLKQLL [KM27 / psis14]"
class = "Yes"

[[record]]
substance = "CSISIQINM [TM145]"
class = "Yes"


Now, please, on to the next substance.
Inquiry: Please indicate whether the reported Zeta Pot. / mV of QCKFKFQFNM [CK8] is strictly below 10 mV.
Reply text: No
